Reference source for all entries: ChEMBL document CHEMBL3046687

# System: Cryptococcus neoformans
# Test Details: Antimicrobial activity against Cryptococcus neoformans clinical isolate after 48 hr by two-fold serial dilution method
# Format: functional
Attribute: MIC
Metric: MIC (µg/mL)

1. CC(=O)N1CCN(c2ccc(OCC3COC(Cn4ccnc4)(c4ccc(Cl)cc4Cl)O3)cc2)CC1 (stereo not given) [KETOCONAZOLE] = 2
2. COc1cccc(/C=C2\SC(=O)N(Cc3ccc(C(=O)O)cc3)C2=O)c1 = 16
3. O=C(O)c1ccc(CN2C(=O)S/C(=C\c3ccc(Br)cc3)C2=O)cc1 = 16
4. O=C(O)c1ccc(CN2C(=O)S/C(=C\c3cccs3)C2=O)cc1 = 32
5. O=C(O)c1ccc(CN2C(=O)S/C(=C\c3ccccc3)C2=O)cc1 = 16
6. Cn1cccc1/C=C1\SC(=O)N(Cc2ccc(C(=O)O)cc2)C1=O = 32
7. O=C(O)c1ccc(CN2C(=O)S/C(=C\c3cccnc3)C2=O)cc1 = 32
8. Cc1ccc(/C=C2\SC(=O)N(Cc3ccc(C(=O)O)cc3)C2=O)cc1 = 64
9. O=C(O)c1ccc(CN2C(=O)S/C(=C\c3ccncc3)C2=O)cc1 = 16
10. O=C(O)c1ccc(CN2C(=O)S/C(=C\c3ccccn3)C2=O)cc1 = 16

* * *

# System: Candida albicans
# Test Details: Antimicrobial activity against Candida albicans ATCC 2091 after 48 hr by two-fold serial dilution method
# Type: functional
# Particulars: ATCC 2091, 48 h
Metric: MIC (µg/mL)

1. COc1cc(/C=C2\SC(=O)N(Cc3ccc(C(=O)O)cc3)C2=O)cc(OC)c1OC = 2
2. O=C(O)c1ccc(CN2C(=O)S/C(=C\c3ccncc3)C2=O)cc1 = 16
3. O=C(O)c1ccc(CN2C(=O)S/C(=C\c3ccco3)C2=O)cc1 = 64
4. O=C(O)c1ccc(CN2C(=O)S/C(=C\c3ccccn3)C2=O)cc1 = 32
5. O=C(O)c1ccc(CN2C(=O)S/C(=C\c3cccs3)C2=O)cc1 = 32

* * *

# Test system: Cryptococcus neoformans
# Test Details: Antimicrobial activity against Cryptococcus neoformans clinical isolate after 48 hr by two-fold serial dilution method
# Assay type: functional
Attribute: MIC
Metric: MIC (µg/mL)

1) COc1cc(/C=C2\SC(=O)N(Cc3ccc(C(=O)O)cc3)C2=O)cc(OC)c1OC = 4
2) O=C(O)c1ccc(CN2C(=O)S/C(=C\c3ccco3)C2=O)cc1 = 64
3) O=C(O)c1ccc(CN2C(=O)S/C(=C\c3ccc(F)cc3)C2=O)cc1 = 4
4) COc1ccc(/C=C2\SC(=O)N(Cc3ccc(C(=O)O)cc3)C2=O)cc1 = 16
